biological target: HIV-RT (Human immunodeficiency virus type 1 group M subtype B, UniProt P04585); construct: 1 unit/mL of HIV-RT (Worthington Biochemical Corp., Freehold, N.J.); purchased Worthington Biochemical Corp., Freehold, N.J; assay: Checkerboard combination of lavendamycin analogs with AZT-triphosphate in HIV-RT enzyme assay (Chou and Talalay); type: biochemical; settings: analogue 0.75 μM + AZT 0.02 μM, Trial 2
Give YES when the value for Combination index is at least 0.8. Give NO when it is less.

Check out these entries, answers already filled in.
[
  {
    "COMPOUND": "CC(=O)NC1=CC(=O)c2ccc(-c3nc(C(=O)O)cc4c3[nH]c3ccccc34)nc2C1=O",
    "CLASS ASSIGNMENT": "YES"
  },
  {
    "COMPOUND": "COC(=O)c1nc(-c2ccc3c(n2)C(=O)C(NC(C)=O)=CC3=O)c2[nH]c3ccccc3c2c1C",
    "CLASS ASSIGNMENT": "YES"
  },
  {
    "COMPOUND": "CC(=O)NC1=CC(=O)c2ccc(-c3nc(C(N)=O)cc4c3[nH]c3ccccc34)nc2C1=O [Compound 16, 7-N-Acetyldemethyllavendamycin Amide]",
    "CLASS ASSIGNMENT": "YES"
  },
  {
    "COMPOUND": "CCCCOC(=O)c1cc2c([nH]c3ccccc32)c(-c2ccc3c(n2)C(=O)C(NC(=O)CCC)=CC3=O)n1",
    "CLASS ASSIGNMENT": "YES"
  }
]

input: Does CCCCCCCCOC(=O)c1cc2c([nH]c3ccccc32)c(-c2ccc3c(n2)C(=O)C(N)=CC3=O)n1 have a reported Combination index of at least 0.8?
output: NO
